QUANTITY_MEASURED: melting point

Solved cases (5 shown):
[
  {
    "COMPOUND": "Cc1cnc(Nc2ccc(C#N)cc2)nc1C(C#N)c1ccc(C#N)c(Cl)c1C (stereo not drawn)",
    "melting point": "205.4 to 206.5 °C"
  },
  {
    "COMPOUND": "COc1cc(C#N)ccc1C(C#N)c1ccnc(Nc2ccc(C#N)cc2)n1 (stereo not drawn)",
    "melting point": "189.4 to 190.1 °C"
  },
  {
    "COMPOUND": "Cc1cc(C#N)ccc1C(C#N)c1ccnc(Nc2ccc(C#N)cc2)n1 (stereo not drawn)",
    "melting point": "213.5 to 214.6 °C"
  },
  {
    "COMPOUND": "N#Cc1ccc(Nc2nccc(C(C#N)c3ccc(C#N)cc3Br)n2)cc1 (stereo not drawn)",
    "melting point": "223.5 to 224.7 °C"
  },
  {
    "COMPOUND": "N#Cc1ccc(Nc2nccc(C(C#N)c3ccc(C#N)cc3F)n2)cc1 (stereo not drawn)",
    "melting point": "165.7 to 166.5 °C"
  }
]

Form: compound = Cc1cc(C(C#N)c2ccnc(Nc3ccc(C#N)cc3)n2)ccc1C#N (stereo not drawn) ; melting point = 223.7 to 224.9 °C

Form: compound = Cc1cc(C#N)c(Br)cc1C(C#N)c1nc(Nc2ccc(C#N)cc2)ncc1C (stereo not drawn) ; melting point = 232.3 to 233.9 °C

Form: compound = N#Cc1ccc(Nc2nccc(C(C#N)c3ccc(C#N)cc3C(F)(F)F)n2)cc1 (stereo not drawn) ; melting point = 236.7 to 237.5 °C

Form: compound = N#Cc1ccc(Nc2nccc(C(C#N)c3c(Cl)cc(C#N)cc3Cl)n2)cc1 (stereo not drawn) ; melting point = 152.5 to 153.2 °C

====

tested on: HIV-1 L100I mutant strain; test: Anti-HIV assay against L100I mutant strain in MT-4 cells; assay type: cell-based; settings: Human immunodeficiency virus 1, MT4, read-out: EC50 L100I
QUANTITY_MEASURED: EC50 (nM)
A number alone suffices; assume nM.

Solved cases (4 shown):
[
  {
    "COMPOUND": "N#Cc1ccc(Nc2nccc(C(C#N)c3c(Cl)cc(C#N)cc3Cl)n2)cc1 (stereo not drawn)",
    "EC50 [nM]": 2320
  },
  {
    "COMPOUND": "Cc1cc(C#N)c(Br)cc1C(C#N)c1nc(Nc2ccc(C#N)cc2)ncc1C (stereo not drawn)",
    "EC50 [nM]": 860
  },
  {
    "COMPOUND": "Cc1cnc(Nc2ccc(C#N)cc2)nc1C(C#N)c1ccc(C#N)cc1Cl (stereo not drawn)",
    "EC50 [nM]": 820
  },
  {
    "COMPOUND": "Cc1cnc(Nc2ccc(C#N)cc2)nc1C(C#N)c1ccc(C#N)cc1F (stereo not drawn)",
    "EC50 [nM]": 3040
  }
]

Form: compound = COc1cc(C#N)ccc1C(C#N)c1ccnc(Nc2ccc(C#N)cc2)n1 (stereo not drawn) ; EC50 = 4720

====

system: HIV-1 L100I mutant strain; assay: Anti-HIV assay against L100I mutant strain in MT-4 cells; format: cell-based; conditions: Human immunodeficiency virus 1, MT4, read-out: EC50 L100I
QUANTITY_MEASURED: EC50

Solved cases (2 shown):
[
  {
    "MOLECULE": "Cc1cnc(Nc2ccc(C#N)cc2)nc1C(C#N)c1ccc(C#N)c(Cl)c1C (stereo not drawn)",
    "QUANTITY_MEASURED": "EC50",
    "MEASURED": "1.82 µM"
  },
  {
    "MOLECULE": "N#Cc1ccc(Nc2nccc(C(C#N)c3ccc(C#N)cc3F)n2)cc1 (stereo not drawn)",
    "QUANTITY_MEASURED": "EC50",
    "MEASURED": "> 10.4 µM"
  }
]

Form: molecule = N#Cc1ccc(Nc2nccc(C(C#N)c3ccc(C#N)cc3C(F)(F)F)n2)cc1 (stereo not drawn) ; EC50 = > 6.23 µM

Form: molecule = Cc1c(C(C#N)c2ccnc(Nc3ccc(C#N)cc3)n2)ccc(C#N)c1Cl (stereo not drawn) ; EC50 = 2.32 µM

Form: molecule = Cc1cc(C(C#N)c2ccnc(Nc3ccc(C#N)cc3)n2)ccc1C#N (stereo not drawn) ; EC50 = > 16.1 µM

Form: molecule = N#Cc1ccc(Nc2nccc(C(C#N)c3ccc(C#N)cc3)n2)cc1 (stereo not drawn) ; EC50 = ≥ 12.3 µM
